Test system: cAMP and cAMP-inhibited cGMP 3',5'-cyclic phosphodiesterase 10A (Homo sapiens)
Procedure summary: Inhibition of N-terminal GST-tagged human recombinant PDE10A assessed as substrate hydrolysis using [3H]cAMP as substrate at 1 uM after 30 mins by two-step radiometric assay
Property name: inhibition
Please format your answer as a value with the unit trailing.

Below are worked cases with known answers.
>>> endpoint_result("Cn1c2ccccc2c2cc(CCOc3ncccc3-c3ccc(F)cc3)cnc21")
"88.5%"
>>> endpoint_result("Cn1c2ccccc2c2cc(CCCOc3ncccc3N3CCOCC3)cnc21")
"19.1%"
>>> endpoint_result("Cn1c2ccccc2c2cc(CCOc3nccnc3-c3ccc(F)cc3)cnc21")
"85.4%"

Note: attention shifts to another entry.
Inquiry: Give its inhibition value. Item: Cn1c2ccccc2c2cc(COc3nccnc3-c3cncnc3)cnc21
Reply text: 10.9%

###

Readings of Retention_time for the listed compounds
Procedure summary: Retention time of the compound by HPLC analysis
Assay type: physicochemical
Respond numerically; units are min and should not be typed.

Below are worked cases with known answers.
>>> endpoint_result("[O-][n+]1cc(CCOc2ncccc2-c2cncnc2)cc2c3ccccc3[nH]c21")
6.78
>>> endpoint_result("c1cnc(OCCc2cnc3[nH]c4ccccc4c3c2)c(-c2cncnc2)c1")
10.86
>>> endpoint_result("Cn1c2ccccc2c2cc(/C=C/Oc3c(-c4cncnc4)ccc[n+]3[O-])cnc21")
9.69
>>> endpoint_result("Cn1c2ccccc2c2cc(/C=C/Oc3ncccc3-c3cncnc3)cnc21")
11.81
>>> endpoint_result("OC(COc1ncccc1-c1cncnc1)c1cnc2[nH]c3ccccc3c2c1 (stereo not given)")
9.06

Inquiry: Give its Retention_time value. Item: Cn1c2ccccc2c2cc(/C=C/Oc3ncccc3-c3cncnc3)c[n+]([O-])c21
Reply text: 9.23

Inquiry: Give its Retention_time value. Item: Cn1c2ccccc2c2cc(C(O)COc3ncccc3-c3cncnc3)cnc21 (stereo not given)
Reply text: 11.55

Inquiry: Give its Retention_time value. Item: C[N+]1([O-])c2ccccc2-c2cc(/C=C/Oc3ncccc3-c3cncnc3)cnc21 (stereo not given)
Reply text: 8.64

Inquiry: Give its Retention_time value. Item: Cn1c2ccccc2c2cc(CCOc3ncccc3-c3cncnc3)cnc21
Reply text: 14.51

Inquiry: Give its Retention_time value. Item: Cn1c2ccccc2c2cc(/C=C\Oc3ncccc3-c3cncnc3)cnc21
Reply text: 10.86

###

Test system: cAMP and cAMP-inhibited cGMP 3',5'-cyclic phosphodiesterase 10A (Homo sapiens, UniProt Q9Y233)
Sequence (Q9Y233 whole entry): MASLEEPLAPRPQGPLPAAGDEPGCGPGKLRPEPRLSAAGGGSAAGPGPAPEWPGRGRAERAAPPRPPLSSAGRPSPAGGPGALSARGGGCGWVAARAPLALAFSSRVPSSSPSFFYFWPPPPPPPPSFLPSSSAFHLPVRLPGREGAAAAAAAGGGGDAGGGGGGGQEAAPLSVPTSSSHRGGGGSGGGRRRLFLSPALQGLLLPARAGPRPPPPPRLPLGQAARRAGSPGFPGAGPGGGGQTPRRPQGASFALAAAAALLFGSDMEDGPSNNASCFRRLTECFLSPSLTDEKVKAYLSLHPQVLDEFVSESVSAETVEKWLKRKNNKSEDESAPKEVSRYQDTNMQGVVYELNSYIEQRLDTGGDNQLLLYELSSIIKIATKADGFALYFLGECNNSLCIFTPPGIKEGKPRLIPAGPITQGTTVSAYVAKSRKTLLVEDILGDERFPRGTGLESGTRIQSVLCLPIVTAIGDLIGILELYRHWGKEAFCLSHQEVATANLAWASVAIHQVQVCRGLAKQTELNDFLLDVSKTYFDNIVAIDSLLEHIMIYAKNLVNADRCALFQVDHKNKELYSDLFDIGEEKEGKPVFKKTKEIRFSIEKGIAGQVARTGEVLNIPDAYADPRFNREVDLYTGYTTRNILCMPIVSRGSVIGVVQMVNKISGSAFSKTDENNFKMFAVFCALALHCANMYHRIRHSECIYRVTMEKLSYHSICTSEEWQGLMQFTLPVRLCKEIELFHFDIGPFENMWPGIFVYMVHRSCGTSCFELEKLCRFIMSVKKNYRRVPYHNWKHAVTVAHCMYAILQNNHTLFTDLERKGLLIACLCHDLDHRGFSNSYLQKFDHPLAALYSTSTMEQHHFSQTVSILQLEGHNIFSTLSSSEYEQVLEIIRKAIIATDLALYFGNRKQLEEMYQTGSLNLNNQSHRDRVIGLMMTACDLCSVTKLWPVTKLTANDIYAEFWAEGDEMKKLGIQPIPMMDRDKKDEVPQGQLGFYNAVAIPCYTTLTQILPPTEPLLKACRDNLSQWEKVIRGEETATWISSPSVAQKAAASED
Procedure summary: Inhibition of N-terminal GST-tagged human recombinant PDE10A assessed as substrate hydrolysis using [3H]cAMP as substrate after 30 mins by two-step radiometric assay
pIC50: −log10 of the molar value.
Label 1 when pIC50 is at or above 7; anything below gets -1.

Please review the entries below; each comes with its answer.
>>> class("Cn1c2ccccc2c2cc(CCOc3nccnc3-c3ccc(Cl)cc3)cnc21")
-1
>>> class("Cn1c2ccccc2c2cc(C3(COc4ncccc4-c4cncnc4)CC3)cnc21")
-1
>>> class("Cn1c2ccccc2c2cc(CCCOc3ncccc3-c3cncnc3)cnc21")
-1
>>> class("Cn1c2ccccc2c2cc(CCOc3nccnc3-c3ccncc3)cnc21")
1
>>> class("Cn1c2ccccc2c2cc(CCOc3ncccc3-c3cncnc3)cnc21")
1

Inquiry: Test whether the molecule FC(F)n1c2ccccc2c2cc(CCOc3ncccc3-c3cncnc3)cnc21 records pIC50 of 7 or higher.
Reply text: 1

Inquiry: Test whether the molecule Cn1c2ccccc2c2cc(CCOc3ncccc3-c3ccncc3)cnc21 records pIC50 of 7 or higher.
Reply text: 1

Inquiry: Test whether the molecule FC(F)(F)Cn1cc(-c2ccncc2)c(-c2ccc(OCc3ccc4ccccc4n3)cc2)n1 records pIC50 of 7 or higher.
Reply text: 1

Inquiry: Test whether the molecule Cn1c2ccccc2c2cc(CCOc3nccnc3-c3ccc(F)cc3)cnc21 records pIC50 of 7 or higher.
Reply text: 1

Inquiry: Test whether the molecule Cn1c2ccccc2c2cc(CCOc3ncccc3-c3ccc(Cl)cc3)cnc21 records pIC50 of 7 or higher.
Reply text: -1

Inquiry: Test whether the molecule Cn1c2ccccc2c2cc(CCCOc3ncccc3-c3cccnc3F)cnc21 records pIC50 of 7 or higher.
Reply text: -1

###

Procedure summary: Drug uptake in Sprague-Dawley rat brain at 5 mg/kg, po after 1 hr
Type: ADME, organism-based
Parameters: dose 5 mg/kg, route oral
Cond: read-out: Drug uptake
Property name: concentration at 1 h

Inquiry: Give its concentration at 1 h value. Item: Cn1c2ccccc2c2cc(CCOc3nccnc3-c3ccc(F)cc3)cnc21
Reply text: < 5.4 ng/mL

###

Procedure summary: Metabolic stability in rat liver microsomes assessed as compound remaining at 1 uM after 60 mins
Type: ADME
Cond: read-out: Stability
Label key: MET means remaining at 1 h, 1 µM under 3%; NOT MET means remaining at 1 h, 1 µM of 3% or more.

Please review the entries below; each comes with its answer.
>>> class("Cn1c2ccccc2c2cc(CCOc3nccnc3-c3ccncc3)cnc21")
"MET"
>>> class("Cn1c2ccccc2c2cc(CCOc3ncccc3-c3cncnc3)cnc21")
"MET"

Inquiry: Strictly below 3% in remaining at 1 h, 1 µM? Cn1cc(CCOc2nccnc2-c2cncnc2)c2nc3ccccc3cc21
Reply text: MET

###

Test system: UniProt O76074
Procedure summary: Inhibition of N-terminal GST-tagged human recombinant PDE5A assessed as substrate hydrolysis using [3H]cGMP as substrate at 1 uM after 30 mins by two-step radiometric assay
Label T when inhibition is at or above 20%; anything below gets F.

Please review the entries below; each comes with its answer.
>>> class("Cn1c2ccccc2c2cc(CCOc3ncccc3-c3cncnc3)cnc21")
"T"
>>> class("Cn1c2ccccc2c2cc(CCOc3ncccc3-c3ccncc3)cnc21")
"T"
>>> class("Cn1c2ccccc2c2cc(CCOc3nccnc3-c3ccc(F)cc3)cnc21")
"F"
>>> class("Cn1c2ccccc2c2cc(CCOc3nccnc3-c3ccncc3)cnc21")
"F"

Inquiry: Test whether the molecule FC(F)n1c2ccccc2c2cc(CCOc3ncccc3-c3cncnc3)cnc21 records inhibition of 20% or higher.
Reply text: F

###

Test system: Dual specificity calcium/calmodulin-dependent 3',5'-cyclic nucleotide phosphodiesterase 1A (Homo sapiens)
Procedure summary: Inhibition of N-terminal GST-tagged human recombinant PDE1A assessed as substrate hydrolysis using [3H]cAMP as substrate at 1 uM after 30 mins by two-step radiometric assay
Property name: inhibition (%)
Respond numerically; units are % and should not be typed.

>>> endpoint_result("Cn1c2ccccc2c2cc(CCOc3nccnc3-c3ccncc3)cnc21")
30.1
>>> endpoint_result("Cn1c2ccccc2c2cc(CCOc3ncccc3-c3ccncc3)cnc21")
40.9
>>> endpoint_result("Cn1c2ccccc2c2cc(CCOc3nccnc3-c3ccc(F)cc3)cnc21")
13.5

Inquiry: Give its inhibition value. Item: FC(F)n1c2ccccc2c2cc(CCOc3ncccc3-c3cncnc3)cnc21
Reply text: 14

Inquiry: Give its inhibition value. Item: Cn1c2ccccc2c2cc(CCOc3ncccc3-c3cncnc3)cnc21
Reply text: 10.7

###

Procedure summary: Metabolic stability in human liver microsomes assessed as compound remaining at 1 uM after 60 mins
Assay type: ADME
Cond: read-out: Stability
Readings of remaining at 1 h, 1 µM for the listed molecules
Respond numerically; units are % and should not be typed.

Below are worked cases with known answers.
>>> endpoint_result("Cn1c2ccccc2c2cc(CCOc3nccnc3-c3ccncc3)cnc21")
0.72
>>> endpoint_result("Cn1cc(CCOc2nccnc2-c2cncnc2)c2nc3ccccc3cc21")
0.11
>>> endpoint_result("FC(F)n1c2ccccc2c2cc(CCOc3ncccc3-c3cncnc3)cnc21")
51.1
>>> endpoint_result("Cn1c2ccccc2c2cc(CCOc3nccnc3-c3ccc(F)cc3)cnc21")
9.92
>>> endpoint_result("Cn1c2ccccc2c2cc(CCOc3ncccc3-c3ccncc3)cnc21")
0.63
>>> endpoint_result("Cn1c2ccccc2c2cc(C3(COc4ncccc4-c4cncnc4)CC3)cnc21")
19.6

Note: attention shifts to another entry.
Inquiry: Give its remaining at 1 h, 1 µM value. Item: Cn1c2ccccc2c2cc(CCOc3ncccc3-c3cncnc3)cnc21
Reply text: 0.45

###

Test system: cGMP-inhibited 3',5'-cyclic phosphodiesterase 3A (Homo sapiens) (UniProt Q14432)
Sequence (Q14432 whole entry): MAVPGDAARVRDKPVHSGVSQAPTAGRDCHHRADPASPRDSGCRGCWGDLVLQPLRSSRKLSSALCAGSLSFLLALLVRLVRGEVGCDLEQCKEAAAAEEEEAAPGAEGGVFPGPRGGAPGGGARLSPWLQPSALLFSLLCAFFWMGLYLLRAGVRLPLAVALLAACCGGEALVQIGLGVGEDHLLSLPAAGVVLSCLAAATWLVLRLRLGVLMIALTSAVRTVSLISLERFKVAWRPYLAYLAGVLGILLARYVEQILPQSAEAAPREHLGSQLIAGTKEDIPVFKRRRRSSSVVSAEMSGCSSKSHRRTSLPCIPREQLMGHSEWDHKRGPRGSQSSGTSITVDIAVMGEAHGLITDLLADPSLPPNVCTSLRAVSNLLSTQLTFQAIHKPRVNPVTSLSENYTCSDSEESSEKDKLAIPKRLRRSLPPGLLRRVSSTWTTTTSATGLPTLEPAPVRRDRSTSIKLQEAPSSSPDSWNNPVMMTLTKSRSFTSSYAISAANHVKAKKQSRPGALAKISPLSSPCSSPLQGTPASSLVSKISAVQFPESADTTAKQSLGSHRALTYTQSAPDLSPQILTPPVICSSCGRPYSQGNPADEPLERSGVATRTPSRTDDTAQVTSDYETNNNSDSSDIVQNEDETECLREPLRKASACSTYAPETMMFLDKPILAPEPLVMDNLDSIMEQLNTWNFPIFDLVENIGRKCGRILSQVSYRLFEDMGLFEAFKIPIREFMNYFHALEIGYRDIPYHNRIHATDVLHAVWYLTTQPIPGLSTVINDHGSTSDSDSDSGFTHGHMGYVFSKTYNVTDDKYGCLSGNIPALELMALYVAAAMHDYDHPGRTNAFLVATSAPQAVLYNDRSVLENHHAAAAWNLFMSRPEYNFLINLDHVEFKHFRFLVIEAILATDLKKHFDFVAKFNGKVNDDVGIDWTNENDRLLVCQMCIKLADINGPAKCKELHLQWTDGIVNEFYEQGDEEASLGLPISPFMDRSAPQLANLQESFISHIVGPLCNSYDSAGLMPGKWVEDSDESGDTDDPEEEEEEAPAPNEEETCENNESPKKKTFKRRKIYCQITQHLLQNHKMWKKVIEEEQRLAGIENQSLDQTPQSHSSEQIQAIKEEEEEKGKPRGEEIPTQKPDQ
Procedure summary: Inhibition of N-terminal GST-tagged human recombinant PDE3A assessed as substrate hydrolysis using cAMP as substrate at 1 uM after 30 mins by homogenous time-resolved fluorescence method
Property name: inhibition (%)
Respond numerically; units are % and should not be typed.

Below are worked cases with known answers.
>>> endpoint_result("Cn1c2ccccc2c2cc(CCOc3nccnc3-c3ccncc3)cnc21")
0.2
>>> endpoint_result("Cn1c2ccccc2c2cc(CCOc3ncccc3-c3ccncc3)cnc21")
0
>>> endpoint_result("FC(F)n1c2ccccc2c2cc(CCOc3ncccc3-c3cncnc3)cnc21")
0.4
>>> endpoint_result("Cn1c2ccccc2c2cc(CCOc3ncccc3-c3cncnc3)cnc21")
0

Note: attention shifts to another entry.
Inquiry: Give its inhibition value. Item: Cn1c2ccccc2c2cc(CCOc3nccnc3-c3ccc(F)cc3)cnc21
Reply text: 0.1

###

Test system: 3',5'-cyclic-AMP phosphodiesterase 4D (Homo sapiens)
Procedure summary: Inhibition of N-terminal GST-tagged human recombinant PDE4D assessed as substrate hydrolysis using [3H]cAMP as substrate at 1 uM after 30 mins by two-step radiometric assay
Label T when inhibition is at or above 4%; anything below gets F.

Please review the entries below; each comes with its answer.
>>> class("Cn1c2ccccc2c2cc(CCOc3ncccc3-c3cncnc3)cnc21")
"T"
>>> class("Cn1c2ccccc2c2cc(CCOc3nccnc3-c3ccc(F)cc3)cnc21")
"F"
>>> class("Cn1c2ccccc2c2cc(CCOc3nccnc3-c3ccncc3)cnc21")
"T"
>>> class("Cn1c2ccccc2c2cc(CCOc3ncccc3-c3ccncc3)cnc21")
"F"

// switching to the query compound
Inquiry: Test whether the compound FC(F)n1c2ccccc2c2cc(CCOc3ncccc3-c3cncnc3)cnc21 records inhibition of 4% or higher.
Reply text: F
